Target: Met kinase (Homo sapiens, UniProt P08581)
Sequence (P08581 25-1390): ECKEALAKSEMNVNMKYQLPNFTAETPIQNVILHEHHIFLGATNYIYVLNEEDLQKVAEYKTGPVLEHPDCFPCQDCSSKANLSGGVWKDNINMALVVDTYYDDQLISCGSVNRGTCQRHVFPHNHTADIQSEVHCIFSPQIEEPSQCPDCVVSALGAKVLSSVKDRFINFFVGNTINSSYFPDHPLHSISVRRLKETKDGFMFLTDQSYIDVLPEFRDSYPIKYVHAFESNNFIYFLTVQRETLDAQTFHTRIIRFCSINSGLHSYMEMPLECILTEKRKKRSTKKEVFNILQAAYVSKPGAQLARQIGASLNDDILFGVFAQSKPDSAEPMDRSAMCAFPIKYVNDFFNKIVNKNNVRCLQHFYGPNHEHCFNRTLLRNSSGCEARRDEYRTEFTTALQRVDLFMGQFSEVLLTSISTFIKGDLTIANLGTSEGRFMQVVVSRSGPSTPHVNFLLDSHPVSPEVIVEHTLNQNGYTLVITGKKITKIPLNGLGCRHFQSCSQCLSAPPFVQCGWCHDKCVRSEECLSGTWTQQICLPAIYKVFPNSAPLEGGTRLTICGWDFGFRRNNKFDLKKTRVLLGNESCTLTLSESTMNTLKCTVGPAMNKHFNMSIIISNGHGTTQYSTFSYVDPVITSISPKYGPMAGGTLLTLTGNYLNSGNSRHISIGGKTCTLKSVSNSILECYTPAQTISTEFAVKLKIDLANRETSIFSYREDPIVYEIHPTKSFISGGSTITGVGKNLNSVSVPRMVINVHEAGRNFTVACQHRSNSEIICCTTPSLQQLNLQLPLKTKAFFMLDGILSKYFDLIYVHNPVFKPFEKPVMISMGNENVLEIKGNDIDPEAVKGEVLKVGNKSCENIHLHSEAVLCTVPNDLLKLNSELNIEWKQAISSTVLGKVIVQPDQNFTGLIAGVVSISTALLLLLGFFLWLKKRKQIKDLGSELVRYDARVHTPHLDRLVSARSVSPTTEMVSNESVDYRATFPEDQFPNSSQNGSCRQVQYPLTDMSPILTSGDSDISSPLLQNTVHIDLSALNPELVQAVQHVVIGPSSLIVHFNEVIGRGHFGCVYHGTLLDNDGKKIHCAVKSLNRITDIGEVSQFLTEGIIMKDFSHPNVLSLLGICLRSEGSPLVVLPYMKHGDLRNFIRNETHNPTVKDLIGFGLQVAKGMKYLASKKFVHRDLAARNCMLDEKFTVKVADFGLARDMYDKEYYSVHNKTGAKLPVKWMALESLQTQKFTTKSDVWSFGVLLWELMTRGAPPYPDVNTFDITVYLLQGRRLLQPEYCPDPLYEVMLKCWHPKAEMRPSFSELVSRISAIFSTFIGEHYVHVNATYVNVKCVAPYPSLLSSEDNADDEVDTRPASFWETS
Assay: Met kinase inhibition, flashplate method (enzyme)
Type: biochemical
Set-up: 6His (N); purchased Upstate 14-526; host or cells: Sf21 insect cells (S. frugiperda), baculovirus
Description: According to the manufacturer's data (Met, active, Upstate, catalogue No. 14-526), Met kinase is expressed for the purposes of protein production in insect cells (Sf21; S. frugiperda) and subsequent affinity-chromatographic purification as “N-terminal 6His-tagged” recombinant human protein in a baculovirus expression vector. […] The full value used is the inhibitor-free kinase reaction. […] The inhibitory values (IC50) are determined using the RS1_MTS program. […]
pIC50: −log10 of the molar value.
pIC50 values for the molecules below.

{"Smiles record": "O=C(Cc1cccc(-c2ncc(-c3cnn(CCN4CCCC4)c3)cn2)c1)N1CCC(c2cc(Cl)ccc2Cl)=N1", "pIC50": "7.00 to 9.00"}
{"Smiles record": "O=C(Cc1cccc(-c2ncc(OCCN3CCOCC3)cn2)c1)N1CCC(c2cc(Cl)ccc2Cl)=N1", "pIC50": "7.00 to 9.00"}
{"Smiles record": "N#Cc1cccc(C2=NN(C(=O)Cc3cccc(-c4ncc(Br)cn4)c3)CC2)c1", "pIC50": "7.00 to 9.00"}
